Each entry below lists one item and its recorded pKd value.
# assay.system: human CA-IX (Homo sapiens, UniProt Q16790)
# Construct: purchased Acro CA9-H82E3
# protocol.summary: Surface Plasmon Resonance (SPR) binding kinetics to recombinant human CA-IX (Biacore 8K, single-cycle kinetics, 1:1 binding model)
# conditions.used: Chelated Metal: Lu-175; SPR, 25° C., pH 7.4; read-out: CAIX KD
pKd: −log10 of the molar value.
experimental.readout: pKd

smiles.text: NS(=O)(=O)c1nnc(NC(=O)C23CC(c4cn(CCNC(=O)[C@@H]5CN(C(=O)CN6CCN(CC(=O)O)CCN(CC(=O)O)CCN(CC(=O)O)CC6)CCN5C(=O)C[C@H](Nc5ncc(C(=O)NCc6coc(C(F)(F)F)n6)cn5)C(=O)O)nn4)(C2)C3)s1.[Lu+3]
experimental.readout: pKd
recorded.value: 8.00 to 8.60
//
smiles.text: NS(=O)(=O)c1nnc(NC(=O)C23CC(c4cn(CCNC(=O)[C@@H]5CN(C(=O)CN6CCN(CC(=O)O)CCN(CC(=O)O)CCN(CC(=O)O)CC6)CCN5C(=O)C[C@H](NC(=O)C[C@H](NC(=O)c5ccc(C(F)(F)F)cc5)C(=O)O)C(=O)O)nn4)(C2)C3)s1.[Lu+3]
experimental.readout: pKd
recorded.value: 8.60 to 9.00
//
smiles.text: CC(CCC(=O)N[C@@H](CC(=O)N[C@@H](CC(=O)N[C@@H](CCCCn1cc(C23CCC(C(=O)Nc4nnc(S(N)(=O)=O)s4)(CC2)CC3)nn1)C(=O)NCCOCCOCCNC(=O)CN1CCN(CC(=O)O)CCN(CC(=O)O)CCN(CC(=O)O)CC1)C(=O)O)C(=O)O)(c1ccc(O)cc1)c1ccc(O)cc1.[Lu+3]
experimental.readout: pKd
recorded.value: > 9.00
